# Experimental System: EBP (Homo sapiens, UniProt P19235)
# Construct: one encoding amino acids 1-225 of the extracellular domain of the mature hEPOR; made in house; host or cells: E. coli BL21(DE3)pLysS (plasmid pSAM3)
# Sequence (P19235 25-249): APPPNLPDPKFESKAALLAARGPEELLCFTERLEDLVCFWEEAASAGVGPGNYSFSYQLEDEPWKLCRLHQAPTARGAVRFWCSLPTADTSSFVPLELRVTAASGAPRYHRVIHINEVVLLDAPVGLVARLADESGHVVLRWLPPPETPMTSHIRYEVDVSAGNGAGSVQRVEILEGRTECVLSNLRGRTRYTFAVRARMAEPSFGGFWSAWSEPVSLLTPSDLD
# Method Notes: DPDPB crosslinking: dimerization of EBP by EPO mimetic peptides (SDS-PAGE)
# Type: biochemical
# Condition Context: 22 μM EBP, 1.1 mM DPDPB, 400 μM peptide; visual detection of dimer product
Property Label: DPDPB cross-linking

construct_sequence="GGLYACHMGPMTWVCQPLRG (GGKYACHMGPMTWVCQPKRG) [RWJ 61718]" property_label="DPDPB cross-linking" reported_measurement=positive
construct_sequence="GGTYSCHFGPLTWVCKPQGG [RWJ 61233]" property_label="DPDPB cross-linking" reported_measurement=positive
construct_sequence="YSCHFGPLTWVCK (YSCHFGPLYWVCK) [RWJ 61279]" property_label="DPDPB cross-linking" reported_measurement=positive
